The measurements presented in this section are drawn from patent US8039668B2.

- system: BCL-XL (Homo sapiens, UniProt Q07817)
- assay.name: 1D 1H-NMR binding assay; for 1D ^1H-NMR Binding Assay (BCL-XL): key: +++: Very Active; ++: Active; +: Mild; −: Weak
- assay.conditions: Table 9
- Sequence (Q07817 whole entry): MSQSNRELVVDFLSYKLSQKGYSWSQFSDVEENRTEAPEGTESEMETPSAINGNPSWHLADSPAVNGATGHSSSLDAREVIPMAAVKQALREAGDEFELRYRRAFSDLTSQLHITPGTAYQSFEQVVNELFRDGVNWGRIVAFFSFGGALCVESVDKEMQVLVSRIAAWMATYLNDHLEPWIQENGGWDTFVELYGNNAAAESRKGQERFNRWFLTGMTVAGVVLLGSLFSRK
readout.label: 1D ^1H-NMR Binding Assay (BCL-XL)

Worked cases, answers included:
INSERT INTO measurements (given_smiles, data_value) VALUES
  ('Cc1cc2c(C(=O)c3cccc4ccccc34)c(O)c(O)cc2c(O)c1-c1c(C)cc2c(C(=O)c3cccc4ccccc34)c(O)c(O)cc2c1O', '+'),
  ('Cc1cc2c(C(=O)c3ccc(C(F)(F)F)cc3)c(O)c(O)cc2c(O)c1-c1c(C)cc2c(C(=O)c3ccc(C(F)(F)F)cc3)c(O)c(O)cc2c1O', '+'),
  ('Cc1cc2c(C(=O)CCc3ccc(F)cc3)c(O)c(O)cc2c(O)c1-c1c(C)cc2c(C(=O)CCc3ccc(F)cc3)c(O)c(O)cc2c1O', '++'),
  ('Cc1ccc(CC(=O)c2c(O)c(O)cc3c(O)c(-c4c(C)cc5c(C(=O)Cc6ccc(C)cc6)c(O)c(O)cc5c4O)c(C)cc23)cc1', '++'),
  ('Cc1cc2c(C(=O)c3nc4ccccc4s3)c(O)c(O)cc2c(O)c1-c1c(C)cc2c(C(=O)c3nc4ccccc4s3)c(O)c(O)cc2c1O', '+');

Now consider the entry below.
Problem: // returns reported 1D ^1H-NMR Binding Assay (BCL-XL) for input Cc1cc2c(C(=O)c3ccc(-c4ccccc4)cc3)c(O)c(O)cc2c(O)c1-c1c(C)cc2c(C(=O)c3ccc(-c4ccccc4)cc3)c(O)c(O)cc2c1O
Result: +

* * *

So I've got Kd readings for BCL-XL (Homo sapiens, UniProt Q07817), take a look.
The response must be a number in nM with no trailing unit.

Problem: Kindly state the measured Kd obtained for CCc1ccc(CCNC(=O)c2c(O)c(O)cc3c(O)c(-c4c(C)cc5c(C(=O)NCCc6ccc(CC)cc6)c(O)c(O)cc5c4O)c(C)cc23)cc1 with BCL-XL (Homo sapiens, UniProt Q07817).
Result: 120

Problem: Similarly, Cc1cc2c(CCc3ccccc3)c(O)c(O)cc2c(O)c1-c1c(C)cc2c(CCc3ccccc3)c(O)c(O)cc2c1O [Compound 12e] ?
Result: 410

Problem: Same again, this time with Cc1cc2c(C(=O)NC(C)c3ccc(Cl)cc3)c(O)c(O)cc2c(O)c1-c1c(C)cc2c(C(=O)NC(C)c3ccc(Cl)cc3)c(O)c(O)cc2c1O (stereo not shown)
Result: 110

Problem: Likewise for Cc1cc2c(C(=O)NCC3CCCCC3)c(O)c(O)cc2c(O)c1-c1c(C)cc2c(C(=O)NCC3CCCCC3)c(O)c(O)cc2c1O ?
Result: 850

* * *

- system: BCL-XL (Homo sapiens, UniProt Q07817)
- assay.name: 1D 1H-NMR binding assay
- assay.conditions: Table 4; BCL-XL 25 μM, compound 200 μM
readout.label: 1D-^1H NMR

Consider the reported 1D-^1H NMR for these compounds:
INSERT INTO results (compound, readout_label, data_value) VALUES
  ('Cc1cc2c(CCc3ccccc3)c(O)c(O)cc2c(O)c1-c1c(C)cc2c(CCc3ccccc3)c(O)c(O)cc2c1O [Compound 12e]', '1D-^1H NMR', '+'),
  ('Cc1cc2cc(O)c(O)cc2c(O)c1-c1c(C)cc2cc(O)c(O)cc2c1O', '1D-^1H NMR', '−'),
  ('Cc1cc2c(Cc3ccccc3)c(O)c(O)cc2c(O)c1-c1c(C)cc2c(Cc3ccccc3)c(O)c(O)cc2c1O [Compound 12d]', '1D-^1H NMR', '+'),
  ('Cc1cc2c(CC3CCCC3)c(O)c(O)cc2c(O)c1-c1c(C)cc2c(CC3CCCC3)c(O)c(O)cc2c1O [Compound 12c]', '1D-^1H NMR', '+'),
  ('Cc1cc2c(CCC(C)C)c(O)c(O)cc2c(O)c1-c1c(C)cc2c(CCC(C)C)c(O)c(O)cc2c1O [Compound 12b]', '1D-^1H NMR', '+');

Proceed to the following item.
Problem: // 1D-^1H NMR lookup, key: Cc1cc2c(CC(C)C)c(O)c(O)cc2c(O)c1-c1c(C)cc2c(CC(C)C)c(O)c(O)cc2c1O [Compound 12a]
Result: +

* * *

- Test system: H460 human lung cell line
- assay.name: Cell viability, ATP-LITE assay
- Type: cell-based
- assay.conditions: Homo sapiens, NCI-H460; heading: EC50 H460; Table 3; ATP-LITE assay; read-out: EC50 H460
What pEC50 was measured for each of the following?
Hey, just a heads up that pEC50 is the negative log base 10 of the concentration in molar.

Problem: Entry Cc1cc2c(C(=O)Nc3ccc(Oc4ccccc4)cc3)c(O)c(O)cc2c(O)c1-c1c(C)cc2c(C(=O)Nc3ccc(Oc4ccccc4)cc3)c(O)c(O)cc2c1O : reported pEC50 = ?
Result: 5.00

Problem: Then this compound: Cc1cccc(CNC(=O)c2c(O)c(O)cc3c(O)c(-c4c(C)cc5c(C(=O)NCc6cccc(C)c6)c(O)c(O)cc5c4O)c(C)cc23)c1
Result: 5.54

Problem: Try this compound next: CCC(NC(=O)c1c(O)c(O)cc2c(O)c(-c3c(C)cc4c(C(=O)NC(CC)c5ccccc5)c(O)c(O)cc4c3O)c(C)cc12)c1ccccc1 (centres unmarked)
Result: 5.82

Problem: Entry Cc1cc2c(C(=O)Nc3cccc(C(F)(F)F)c3)c(O)c(O)cc2c(O)c1-c1c(C)cc2c(C(=O)Nc3cccc(C(F)(F)F)c3)c(O)c(O)cc2c1O please
Result: 4.78

Problem: And CCc1cccc(NC(=O)c2c(O)c(O)cc3c(O)c(-c4c(C)cc5c(C(=O)Nc6cccc(CC)c6)c(O)c(O)cc5c4O)c(C)cc23)c1 ?
Result: 5.39

Problem: Could you do the same for Cc1cc2c(C(=O)NCCc3ccc(Cl)cc3)c(O)c(O)cc2c(O)c1-c1c(C)cc2c(C(=O)NCCc3ccc(Cl)cc3)c(O)c(O)cc2c1O , please?
Result: 5.89

Problem: Ok, now Cc1cc2c(C(=O)NC3CCCC3)c(O)c(O)cc2c(O)c1-c1c(C)cc2c(C(=O)NC3CCCC3)c(O)c(O)cc2c1O
Result: 5.07

* * *

Please go through the items and note down their pIC50.
- system: BCL-XL (Homo sapiens, UniProt Q07817)
- assay.name: Competitive fluorescence polarization assay (FPA), Bak BH3 peptide
- Format: binding
- Design: 100 nM GST-BCL-XL ΔTM protein
- assay.conditions: Table 9; read-out: FPA IC50 (BCL-XL)
- Sequence (Q07817 1-209 limits assumed): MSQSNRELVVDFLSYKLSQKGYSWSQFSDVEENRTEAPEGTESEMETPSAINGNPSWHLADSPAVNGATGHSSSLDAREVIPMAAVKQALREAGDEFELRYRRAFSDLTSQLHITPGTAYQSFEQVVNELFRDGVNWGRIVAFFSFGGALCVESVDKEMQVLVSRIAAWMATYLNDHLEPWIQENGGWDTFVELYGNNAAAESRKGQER
The read-out pIC50 is expressed as -log10 of concentration in moles per litre.

Problem: Value lookup for pIC50; key = Cc1cc2c(C(=O)CCc3ccc(F)cc3)c(O)c(O)cc2c(O)c1-c1c(C)cc2c(C(=O)CCc3ccc(F)cc3)c(O)c(O)cc2c1O [Compound XVI]
Result: 6.85

Problem: Here is the next molecule: Cc1cc2c(C(=O)c3ccc(C(F)(F)F)cc3)c(O)c(O)cc2c(O)c1-c1c(C)cc2c(C(=O)c3ccc(C(F)(F)F)cc3)c(O)c(O)cc2c1O [Compound XI]
Result: 6.60

Problem: Same question for Cc1cc2c(C(=O)Cc3ccccc3)c(O)c(O)cc2c(O)c1-c1c(C)cc2c(C(=O)Cc3ccccc3)c(O)c(O)cc2c1O [Compound I] please.
Result: 6.72

* * *

Please respond with reported EC50 for every item in the list.
- Test system: H1299 cell line
- assay.name: Cell viability, ATP-LITE assay
- Format: cell-based, human
- assay.conditions: Homo sapiens, NCI-H1299; ATP-LITE assay; read-out: EC50 H1299
Please state the value followed by its unit.

Problem: Recorded EC50 for Cc1cc2c(CC3CCCC3)c(O)c(O)cc2c(O)c1-c1c(C)cc2c(CC3CCCC3)c(O)c(O)cc2c1O [Compound 12c] , please?
Result: 10.9 µM

Problem: Please answer likewise for Cc1cc2cc(O)c(O)cc2c(O)c1-c1c(C)cc2cc(O)c(O)cc2c1O
Result: 13.4 µM

Problem: Try this molecule too: Cc1cc2c(Cc3ccccc3)c(O)c(O)cc2c(O)c1-c1c(C)cc2c(Cc3ccccc3)c(O)c(O)cc2c1O [Compound 12d]
Result: 1.28 µM

* * *

- Test system: B6Bcl-2 transgenic mice
- assay.conditions: Bcl-2 transgenic mouse, single ip injection 72 μmol/kg
readout.label: Tox

Problem: Endpoint output: Tox of CC(=O)O.Cc1cc2c(C(C)C)c(O)c(O)c(C=O)c2c(O)c1-c1c(C)cc2c(C(C)C)c(O)c(O)c(C=O)c2c1O [Gossypol, reference compound] . Value?
Result: 2+

Problem: Param item: Cc1cc2c(C(=O)NC(C)c3ccc(Cl)cc3)c(O)c(O)cc2c(O)c1-c1c(C)cc2c(C(=O)NC(C)c3ccc(Cl)cc3)c(O)c(O)cc2c1O (stereo not drawn)
Result: 4+

Problem: For Cc1cc2c(CC3CCCC3)c(O)c(O)cc2c(O)c1-c1c(C)cc2c(CC3CCCC3)c(O)c(O)cc2c1O [Compound 12c] then?
Result: 1+

Problem: Now the molecule CCc1ccc(CCNC(=O)c2c(O)c(O)cc3c(O)c(-c4c(C)cc5c(C(=O)NCCc6ccc(CC)cc6)c(O)c(O)cc5c4O)c(C)cc23)cc1
Result: 4+

Problem: Please answer likewise for Cc1cc2c(CCc3ccccc3)c(O)c(O)cc2c(O)c1-c1c(C)cc2c(CCc3ccccc3)c(O)c(O)cc2c1O [Compound 12e]
Result: 0

Problem: Entry Cc1cc2c(C(=O)NCC3CCCCC3)c(O)c(O)cc2c(O)c1-c1c(C)cc2c(C(=O)NCC3CCCCC3)c(O)c(O)cc2c1O please
Result: 4+
